target: DRB1*09:01 (Homo sapiens, UniProt P01903+P01911, A100R/A103E/D57H/D86V/F55Y/F60I/F76Y/I96F/K127E/L162R/M171V/P40D/Q125H/Q99R/R33Q/R42F/S133A/S66N/T210M/V115G/W38K/Y107V/Y59G/Y89S); assay: MHC class II binding assay; conditions: allele DRB1*09:01
Where no end group is shown, it is not given here.
assay_metric: IC50 (nM)
Only the number, expressed in nM, is required.

Q: Tell me the measured IC50 of RRPFYSNAPLEIYVQ [Peptide 9] , please.
A: 24

---

target: DRB5*01:01 (Homo sapiens, UniProt P01903+Q30154); test: MHC class II binding assay; conditions: allele DRB5*01:01
Where no end group is shown, it is not given here.
assay_metric: IC50

Q: Short answer please: IC50, DRB5*01:01 (Homo sapiens, UniProt P01903+Q30154), entry QARQLKNNNPFKFFV [Peptide 10]
A: 179 nM
